Provide the reported IC50 of each item.
experimental_target: GST-Syk Full Protein (human) (Homo sapiens)
test: Syk kinase inhibition test (HTRF method)
Format: biochemical
applied_conditions: HTRF, 100 μM ATP, 30 min room temperature, average; read-out: sykHTRF ave IC50

Answered cases to consult:
| compound | experimental_target | IC50 |
| --- | --- | --- |
| Cc1ccnc(Nc2cccc(-c3cnc(CNc4ccc(CC(=O)N5CCC(O)CC5)cc4)s3)n2)c1 [Compound A-278] | GST-Syk Full Protein (human) (Homo sapiens) | 100 to 1000 nM |
| Cc1ccnc(Nc2cccc(-c3cnc(CN4CCNCC4)s3)n2)c1 [Compound A-194] | GST-Syk Full Protein (human) (Homo sapiens) | < 100 nM |

Please go through the list and note IC50 for each compound.
1. CC(=O)NCCCCCc1ncc(-c2cccc(Nc3cc(C)ccn3)n2)s1 [Compound A-129]
2. Cc1ccnc(Nc2cccc(-c3cnc(CCc4ccc(CO)cc4)s3)n2)c1 [Compound A-159]
3. Cc1ccnc(Nc2cccc(-c3cnc([C@H]4CC[C@H](C(=O)NCCN(C)C)CC4)s3)n2)c1 [Compound A-309]

Data returned:
1. 100 to 1000 nM
2. < 100 nM
3. < 100 nM

Look at each compound and report its IC50.
1. Cc1ccnc(Nc2cccc(-c3cnc(N4CCC(C(N)=O)CC4)s3)n2)c1 [Compound A-3]
2. O=C1CC[C@@H](c2ncc(-c3cccc(Nc4cc(Cl)ccn4)n3)s2)N1 [Compound A-323]
3. Cc1ccnc(Nc2cccc(-c3cnc([C@@H](N)COCc4ccccc4)s3)n2)c1 [Compound A-44]
4. CC(=O)Oc1ccc(CC(OC(C)=O)c2ncc(-c3cccc(Nc4cc(C)ccn4)n3)s2)cc1 (centres unmarked) [Compound A-360]
5. Cc1ccnc(Nc2cccc(-c3cnc([C@H]4CC[C@H](C(=O)N5CCC(O)CC5)CC4)s3)n2)c1 [Compound A-8]
6. Cc1ccnc(Nc2cccc(-c3cnc(Cc4cccs4)s3)n2)c1 [Compound A-232]
7. CC(=O)NCc1ncc(-c2cccc(Nc3cc(C)ccn3)n2)s1 [Compound A-143]

Data returned:
< 100 nM
< 100 nM
> 1000 nM
> 1000 nM
100 to 1000 nM
100 to 1000 nM
100 to 1000 nM

Where do the numbers come from? From patent US7803801B2.
